Test system: endogenous TFE3
Assay: TFE3 nuclear translocation, immunocytochemistry high-content imaging
Format: cell-based
Details: PKIS2 primary screen
MEASUREMENT_KIND: TFE3 % (%)
Numbers only, in %.

Examples with their reported TFE3 % follow.
{"columns": ["COMPOUND", "MEASURED_ON", "TFE3 % / %"],
 "data": [
  ["COc1ccccc1CNC(=O)c1cc(C(=O)c2ccccc2C)c[nH]1 [UNC10225294A]", "endogenous TFE3", 19.95],
  ["O=c1[nH]cc(-c2ccc(N3CCOCC3)cc2)c2sc(-c3cn[nH]c3)cc12 [UNC10225158A]", "endogenous TFE3", 10.30],
  ["CCN(CC)CCOc1ccc(Nc2ncc3cc(-c4c(Cl)cccc4Cl)c(=O)n(C)c3n2)cc1 [UNC10225459A]", "endogenous TFE3", 18.27],
  ["O=c1[nH]cc(-c2ccc(O)cc2)c2sc(-c3ccncc3)cc12 [UNC10225166A]", "endogenous TFE3", 6.08],
  ["Cc1c(Cn2c(C)nn3c(=O)cc(N4CCOC(C)C4)nc23)cccc1C(F)(F)F (centres unmarked) [UNC10225005A]", "endogenous TFE3", 10.85],
  ["O=C(Nc1c(F)cccc1F)c1cc(C(=O)c2ccccc2F)c[nH]1 [UNC10225351A]", "endogenous TFE3", 7.96],
  ["NS(=O)(=O)c1cccc(N/C=C2\\C(=O)Nc3ccc(S(=O)(=O)Cc4c(Cl)cccc4Cl)cc32)c1 [UNC10225298A]", "endogenous TFE3", 5.33]
]}

Please turn your attention to the following entry.
Name the reported TFE3 % value associated with the compound O=C(NCc1cccs1)c1cc(C(=O)c2c(Cl)cccc2Cl)c[nH]1 [UNC10225502A] 7.89

====

Test system: endogenous TFE3
Test: TFE3 nuclear translocation, immunocytochemistry high-content imaging
Assay type: cell-based
Conditions: PKIS2 primary screening
Provide the recorded TFE3 % for the entries that follow.
Answers are plain numbers, in %.

{"columns": ["COMPOUND", "TFE3 % / %"],
 "data": [
  ["COc1cc2ncn(-c3cc(OCCCc4ccccc4)c(C(N)=O)s3)c2cc1OC [UNC10225450A]", 11.96],
  ["COc1ccc(Nc2nccc(NCCNC(=O)c3cc4ccccc4s3)n2)cc1", 17.76]
]}

// for each compound below, give its TFE3 %
1. Nc1nccc2scc(-c3ccc4c(c3)CCN4C(=O)Cc3ccccc3)c12 [UNC10225119A]
2. C[C@@H](Oc1cc(-n2cnc3cc(-c4ccncc4)ccc32)sc1C(N)=O)c1ccccc1Cl [UNC10225262A]
3. NS(=O)(=O)c1cccc(-c2ccc3nccc(-c4cccc(S(N)(=O)=O)c4)c3c2)c1 [UNC10225379A]
4. CC(C)c1ccc(O)cc1Nc1ccnc2ccc(C(F)(F)F)cc12 [UNC10225322A]
5. Cc1ccc(CC(=O)N2CCc3cc(-c4cn(C)c5ncnc(N)c45)ccc32)cc1 [UNC10225490A]
6. Cc1cccc(-c2nc(Nc3ccc4c(cnn4C)c3)c3ccccc3n2)n1

[4.70, 14.34, 17.04, 14.84, 14.69, 20.31]

====

Provide the recorded AK for the entries that follow.
Tested on: SH-SY5Y cells
Assay: AK (adenylate kinase) release ToxiLight cytotoxicity assay; note: reference of the scale not given here
Details: PKIS2 primary screening
Numbers only.

Examples with their reported AK follow.
{"columns": ["MOLECULE", "MEASUREMENT_KIND", "OBSERVED"],
 "data": [
  ["COc1ccc(Nc2nccc(N3CCC(NC(=O)Nc4cc(C)ccc4C)C3)n2)cc1 (centres unmarked)", "AK", 100.67],
  ["COC(=O)Nc1nc2ccc(Oc3ccc(NC(=O)Nc4cc(C(F)(F)F)ccc4F)cc3)cc2[nH]1", "AK", 90.67],
  ["O=C(Nc1ccccc1F)NC1CCN(c2ccnc(Nc3ccc(F)cc3)n2)C1 (centres unmarked)", "AK", 94.79],
  ["COc1cc2ncn(-c3cc(OCc4sccc4Cl)c(C(N)=O)s3)c2cc1OC [UNC10225153A]", "AK", 134.16]
]}

// for each molecule below, give its AK
1. Nc1ncnc2scc(-c3ccc(NC(=O)Cc4cc(F)ccc4F)cc3)c12.O=C(O)C(F)(F)F [UNC10225107A]
2. COc1ccc(Nc2nccc(N3CCC(NC(=O)Nc4cccc(OC)c4)C3)n2)cc1 (centres unmarked)
3. CCNCC(Cc1ccccc1)NC(=O)c1cc(Br)c(-c2ccnc3[nH]ccc23)s1.Cl.Cl (centres unmarked) [UNC10225436A]

1: 124.57; 2: 126.78; 3: 108.80

// for each molecule below, give its AK
1. NC(=O)c1sc(-n2cnc3ccccc32)cc1OCc1ccccc1F [UNC10225260A]
2. Cc1cccc(-c2nc(Nc3ccncc3)c3sccc3n2)n1
3. Cc1cc(NCC(c2ccccc2)c2ccccc2)nc(NCc2ccc(C(F)(F)F)cc2)n1
4. CCn1c(-c2cccnc2O)nc2cnccc21 [UNC10225114A]
5. CC1=C(C(=O)Nc2cc3cn[nH]c3cc2F)C(c2ccc(C(F)(F)F)cc2)CC(=O)N1 (centres unmarked) [UNC10225339A]
6. Clc1ccc(-c2cc(-c3c[nH]nc3-c3ccccn3)ccn2)cc1 [UNC10225057A]

77.77
80.75
143.14
77.22
70.62
69.86

====

Provide the recorded pKd for the entries that follow.
Molecular target: PRKD1 (Homo sapiens)
Sequence (Q15139 1-912): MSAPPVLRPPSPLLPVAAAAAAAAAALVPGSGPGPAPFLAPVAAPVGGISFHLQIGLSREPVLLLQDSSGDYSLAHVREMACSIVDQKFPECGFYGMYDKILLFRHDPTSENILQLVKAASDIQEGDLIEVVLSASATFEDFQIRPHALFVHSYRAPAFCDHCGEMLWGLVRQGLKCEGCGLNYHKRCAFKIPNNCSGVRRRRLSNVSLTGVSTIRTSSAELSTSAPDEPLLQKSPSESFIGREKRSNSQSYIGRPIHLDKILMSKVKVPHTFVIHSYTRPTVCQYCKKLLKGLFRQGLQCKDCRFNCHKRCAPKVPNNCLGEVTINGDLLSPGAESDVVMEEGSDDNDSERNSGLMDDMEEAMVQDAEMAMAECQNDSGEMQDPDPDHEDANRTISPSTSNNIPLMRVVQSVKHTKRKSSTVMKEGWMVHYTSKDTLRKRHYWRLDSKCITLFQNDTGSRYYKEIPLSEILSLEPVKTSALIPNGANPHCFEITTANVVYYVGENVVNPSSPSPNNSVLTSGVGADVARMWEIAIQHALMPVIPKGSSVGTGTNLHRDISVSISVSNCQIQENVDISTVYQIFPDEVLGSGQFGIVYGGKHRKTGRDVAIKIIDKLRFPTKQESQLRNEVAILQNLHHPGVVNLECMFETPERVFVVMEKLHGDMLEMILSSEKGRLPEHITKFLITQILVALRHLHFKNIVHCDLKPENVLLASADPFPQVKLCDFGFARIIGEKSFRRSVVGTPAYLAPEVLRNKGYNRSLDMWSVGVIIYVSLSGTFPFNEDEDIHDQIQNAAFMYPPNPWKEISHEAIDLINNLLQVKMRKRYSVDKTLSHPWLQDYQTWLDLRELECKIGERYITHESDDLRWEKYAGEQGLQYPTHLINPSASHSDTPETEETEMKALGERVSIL
Numbers only, as −log10 of the molar value.

Examples with their reported pKd follow.
{"columns": ["COMPOUND", "MEASUREMENT_KIND", "OBSERVED"],
 "data": [
  ["Cc1cccc(-c2nc(Nc3ccc4ccsc4c3)c3ccccc3n2)n1 [NK219]", "pKd", 6.19],
  ["Cc1cccc(-c2nc(Nc3ccncc3)c3ccccc3n2)n1 [NK215]", "pKd", 7.89]
]}

Please turn your attention to the following entry.
Name the reported pKd value associated with the compound COc1ccc(Nc2nc(-c3cccc(C)n3)nc3ccccc23)cc1 [NK170] 6.11

====

Test system: SH-SY5Y cells
Conditions: PKIS2 primary screening, DQ Red BSA spot count
MEASUREMENT_KIND: DQ Spot
Give bare numbers.

{"columns": ["COMPOUND", "MEASURED_ON", "DQ Spot"],
 "data": [
  ["COc1ccc(Nc2nccc(-c3cccc(NC(=O)c4cc5cc(F)ccc5[nH]4)c3)n2)cc1", "SH-SY5Y cells", 110.99]
]}

// for each compound below, give its DQ Spot
1. Cc1cccc(-c2nc(Nc3ccc4nn[nH]c4c3)c3ccccc3n2)n1
2. NCCC(NC(=O)c1cc(Br)c(-c2ccnc3[nH]ccc23)s1)c1ccccc1.O=C(O)C(F)(F)F.O=C(O)C(F)(F)F (stereo not shown) [UNC10225503A]

1: 102.41; 2: 127.76

Name the reported DQ Spot value associated with the compound "Nc1nccc(-c2ccc3c(N)n[nH]c3c2)n1" 101.09

Every entry's value here was drawn from paper PMC9851200.
